FYI, the data here is from paper PMC3352596.

So I've got a bunch of compounds here, and I need their inhibition at 10 µM values.
- Tested on: Huh7 cells
- TEST_NAME: cytotoxicity in Huh7 cells by amplification of ribosomal RNA
- Format: cell-based
- TEST_PARAMETERS: Homo sapiens, Huh-7, read-out: Anti-HCV activity: % inhib @ 10 μM in Huh7 cells, rRNA

C[C@@]1(O)[C@H](O)[C@@H](CO)O[C@H]1n1cnc2c(=O)[nH]nc(N)c21 : 0%
C[C@@]1(O)[C@H](O)[C@@H](CO)O[C@H]1n1cnc2c1nc(N)n1nc(-c3ccco3)nc21 [Compound 13b] : 0%
CCOC(=O)[C@H](C)NP(=O)(OC[C@H]1O[C@@H](n2cnc3c(C)nc(N)nc32)[C@](C)(O)[C@@H]1O)Oc1ccccc1 (stereo partly shown) : 0%
CCOP(=O)(OCC)c1nc(N)nc2c1ncn2[C@@H]1O[C@H](CO)[C@@H](O)[C@@]1(C)O : 14.8%

Quick one: give me inhibition at 10 µM for each item below, same order please.
1. C[C@@]1(O)[C@H](O)[C@@H](CO)O[C@H]1n1cnc2c(N)nc(-n3cc([Si](C)(C)C)nn3)nc21
2. C[C@@]1(O)[C@H](O)[C@@H](CO)O[C@H]1n1cnc2c(=N)n(N)[nH]c(=O)c21

Return:
1: 0%; 2: 0%

For this compound ( `C[C@@]1(OC(=O)c2ccccc2)[C@H](OC(=O)c2ccccc2)[C@@H](COC(=O)c2ccccc2)O[C@H]1n1cnc2c(Cl)nc(NO)nc21` ), measured inhibition at 10 µM is 99.9%
